biological target: MR1 (Homo sapiens, UniProt Q95460); construct: soluble human MR1 (residues 1-270 of the mature, leaderless protein); made in house; experiment: Refolding of denatured MR1 and β2m with ligands; assay type: binding; details: substance added to MR1/β2m refold
Sequence (Q95460 23-292): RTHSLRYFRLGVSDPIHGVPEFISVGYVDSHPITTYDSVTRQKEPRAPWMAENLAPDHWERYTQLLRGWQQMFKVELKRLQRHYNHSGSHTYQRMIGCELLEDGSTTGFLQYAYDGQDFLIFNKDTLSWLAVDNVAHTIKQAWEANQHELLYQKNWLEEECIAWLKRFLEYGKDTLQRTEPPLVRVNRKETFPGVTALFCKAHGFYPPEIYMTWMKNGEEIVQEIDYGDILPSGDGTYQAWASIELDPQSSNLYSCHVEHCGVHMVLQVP
Sequence (P61769 21-119 partner): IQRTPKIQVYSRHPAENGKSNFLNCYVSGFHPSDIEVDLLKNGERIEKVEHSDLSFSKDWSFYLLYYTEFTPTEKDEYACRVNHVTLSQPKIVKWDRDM
assay-metric: Ability to refold MR1 into native MR1-β2m complex

[[record]]
compound = "Cc1nc2nc(N)[nH]c(=O)c2nc1C [6-7-dimethylpterin]"
observed = "inability"

[[record]]
compound = "Nc1nc2nccnc2c(=O)[nH]1 [pterin]"
observed = "inability"

